- Study target: MPO (purified from human polynuclear leukocytes) (Homo sapiens, UniProt P05164)
- Construct: purified from human polynuclear leukocytes; purchased Calbiochem/EMD Biosciences; host or cells: human polynuclear leukocytes (natural source)
- Sequence (P05164 279-745 limits assumed): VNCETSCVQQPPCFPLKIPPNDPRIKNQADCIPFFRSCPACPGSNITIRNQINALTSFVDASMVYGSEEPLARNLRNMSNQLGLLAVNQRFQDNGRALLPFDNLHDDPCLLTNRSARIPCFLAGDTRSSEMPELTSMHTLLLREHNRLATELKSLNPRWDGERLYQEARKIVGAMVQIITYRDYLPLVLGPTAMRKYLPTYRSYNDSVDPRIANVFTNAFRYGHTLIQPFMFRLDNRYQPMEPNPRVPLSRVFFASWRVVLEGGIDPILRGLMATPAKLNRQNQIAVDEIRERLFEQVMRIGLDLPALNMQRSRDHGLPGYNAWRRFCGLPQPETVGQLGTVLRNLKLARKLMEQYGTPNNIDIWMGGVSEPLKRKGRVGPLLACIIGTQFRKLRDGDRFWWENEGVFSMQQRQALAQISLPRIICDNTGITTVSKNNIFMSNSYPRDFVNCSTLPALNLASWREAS
- Sequence (P05164 165-273 limits assumed): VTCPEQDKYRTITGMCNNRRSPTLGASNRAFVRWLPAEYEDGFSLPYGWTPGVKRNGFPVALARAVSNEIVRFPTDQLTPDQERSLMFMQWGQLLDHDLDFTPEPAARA
- Assay explanation: MPO Amplex Red Activity Assay
- Type: biochemical
- Recorded conditions: Table 1, 2 μM H2O2, pH 7.4
Where a name gives a salt, the structure may show the parent alone.
Quantity measured: MPO kinact/Ki

Solved entries:
>  <Compound>
COCCn1c(-c2ccccc2CCO)cc(=O)[nH]c1=S

>  <Quantity measured>
MPO kinact/Ki

>  <Result>
1110 1/s per M

$$$$
>  <Compound>
COc1ccc(-c2cc(=O)[nH]c(=S)n2CCNC(=O)OC(C)(C)C)c(OC)c1

>  <Quantity measured>
MPO kinact/Ki

>  <Result>
1280 1/s per M

$$$$

## Task What measured MPO kinact/Ki goes with "COCCn1c(-c2cccc(OC)c2)cc(=O)[nH]c1=S" ?
## Result 1810 1/s per M

## Task Item COc1ccc(-c2cc(=O)[nH]c(=S)n2CCOCCNC(=N)N)c(OC)c1 [Example 140, formate] has what recorded MPO kinact/Ki?
## Result 10400 1/s per M

## Task What MPO kinact/Ki value was documented for this compound, COc1ccc(C)cc1-c1cc(=O)[nH]c(=S)n1CCNC(=O)CN [Example 120, hydrochloride] ?
## Result 9720 1/s per M

## Task I am curious: what MPO kinact/Ki value has been reported for COc1ccc(-c2cc(=O)[nH]c(=S)n2CCCN=C(N)N)c(OC)c1 [Example 270, trifluoroacetate] ?
## Result 20500 1/s per M

## Task Would you kindly share the measured MPO kinact/Ki for "CNC(=O)Cn1c(-c2ccc(OC)cc2OC)cc(=O)[nH]c1=S" ?
## Result 4090 1/s per M

## Task Requested read-out: MPO kinact/Ki. Entry: "COCCn1c(-c2ccc(S(C)(=O)=O)cc2)cc(=O)[nH]c1=S"
## Result 864 1/s per M

## Task Tell me the measured MPO kinact/Ki of "COCCn1c(-c2cc3ccccc3o2)cc(=O)[nH]c1=S" , please.
## Result 6740 1/s per M

## Task Please report the recorded MPO kinact/Ki for "COCCn1c(-c2ccc(OC)cc2F)cc(=O)[nH]c1=S" .
## Result 3060 1/s per M

## Task Reported MPO kinact/Ki, compound COc1ccc(-c2cc(=O)[nH]c(=S)n2CC(C)C(N)=O)c(OC)c1 (stereo not drawn) : ____
## Result 3940 1/s per M

## Task Fill in: MPO kinact/Ki of COc1ccc(-c2cc(=O)[nH]c(=S)n2CCOC(=O)CN)c(OC)c1 [Example 244, tosylate] is ___
## Result 8970 1/s per M

## Task Requested read-out: MPO kinact/Ki. Entry: COc1ccc(-c2cc(=O)[nH]c(=S)n2CCN)c(OC)c1 [Example 6, hydrochloride]
## Result 12900 1/s per M

## Task Item "COc1ccc(-c2cc(=O)[nH]c(=S)n2CCCCNC(=N)N)c(OC)c1" has what recorded MPO kinact/Ki?
## Result 12700 1/s per M

## Task Please look up its MPO kinact/Ki: "COCCn1c(-c2ccc(OC(F)(F)F)cc2)cc(=O)[nH]c1=S"
## Result 968 1/s per M

## Task Bench note: what MPO kinact/Ki did "COCCn1c(-c2cccc(C)c2)cc(=O)[nH]c1=S" show?
## Result 2790 1/s per M

## Task GET /values?readout=MPO kinact/Ki&item= "COc1ccc(-c2cc(=O)[nH]c(=S)n2CCC2CCN(C(C)=O)CC2)c(OC)c1"
## Result 2200 1/s per M

## Task What MPO kinact/Ki value was documented for this compound, "COCCn1c(-c2ccc3c(c2)CCO3)cc(=O)[nH]c1=S" ?
## Result 5340 1/s per M

* * *

Readings of MPO kinact/Ki for the listed compounds
- Study target: MPO (purified from human polynuclear leukocytes) (Homo sapiens, UniProt P05164)
- Construct: purified from human polynuclear leukocytes; purchased Calbiochem/EMD Biosciences; host or cells: human polynuclear leukocytes (natural source)
- Assay explanation: MPO Amplex Red Activity Assay
- Format: biochemical
- Recorded conditions: Table 1A, 2 μM H2O2, pH 7.4

Observe how each entry below is paired with its result.
>  <Compound>
NCCNC(=O)Cn1c(-c2ccccc2OCCO)cc(=O)[nH]c1=S [Example 428]

>  <MPO kinact/Ki>
5890 1/s per M

$$$$
>  <Compound>
CNCCCn1c(-c2cc(F)ccc2OC)cc(=O)[nH]c1=S [Example 374]

>  <MPO kinact/Ki>
4600 1/s per M

$$$$
>  <Compound>
COc1cc(C)ccc1-c1cc(=O)[nH]c(=S)n1CC(N)=O [Example 418]

>  <MPO kinact/Ki>
11500 1/s per M

$$$$
>  <Compound>
COc1ccc(Cl)cc1-c1cc(=O)[nH]c(=S)n1C[C@H](C)N [Example 361]

>  <MPO kinact/Ki>
2060 1/s per M

$$$$
>  <Compound>
O=c1cc(-c2ccc(F)cc2OCCO)n(CCO)c(=S)[nH]1 [Example 413]

>  <MPO kinact/Ki>
6560 1/s per M

$$$$

## Task Record NC(=O)Cn1c(-c2ccc3c(c2)OCCO3)cc(=O)[nH]c1=S [Example 358] : what is its MPO kinact/Ki with MPO (purified from human polynuclear leukocytes) (Homo sapiens, UniProt P05164)?
## Result 1710 1/s per M

## Task Lab note: need MPO kinact/Ki with MPO (purified from human polynuclear leukocytes) (Homo sapiens, UniProt P05164) for entry NCCn1c(-c2ccc3c(c2)OCCO3)cc(=O)[nH]c1=S [Example 357] , please look it up.
## Result 2940 1/s per M

## Task # returns recorded MPO kinact/Ki (system: MPO (purified from human polynuclear leukocytes) (Homo sapiens, UniProt P05164)) for COc1ccc(-c2cc(=O)[nH]c(=S)n2CC(=O)NCCN(C)C)c(OC)c1 [Example 392]
## Result 5830 1/s per M

## Task // fetch MPO (purified from human polynuclear leukocytes) (Homo sapiens, UniProt P05164) MPO kinact/Ki for COc1ccc(F)cc1-c1cc(=O)[nH]c(=S)n1CCCNC(=N)NC#N [Example 447]
## Result 17200 1/s per M

* * *

MPO kinact/Ki reference
- Study target: MPO (purified from human polynuclear leukocytes) (Homo sapiens, UniProt P05164)
- Construct: purified from human polynuclear leukocytes; purchased Calbiochem/EMD Biosciences; host or cells: human polynuclear leukocytes (natural source)
- Assay explanation: MPO Amplex Red Activity Assay
- Type: biochemical
- Recorded conditions: Table 1A, 2 μM H2O2, pH 7.4

In the examples that follow, each entry is paired with its recorded MPO kinact/Ki.
>  <Given smiles>
COc1ccc(-c2cc(=O)[nH]c(=S)n2CC(=O)N[C@H]2CCNC2)c(OC)c1

>  <MPO kinact/Ki>
13600 1/s per M

$$$$
>  <Given smiles>
COc1ccc(-c2cc(=O)[nH]c(=S)n2CC(=O)NCCCN)c(OC)c1

>  <MPO kinact/Ki>
12300 1/s per M

$$$$
>  <Given smiles>
CNCCNC(=O)Cn1c(-c2ccc(OC)cc2OC)cc(=O)[nH]c1=S

>  <MPO kinact/Ki>
3480 1/s per M

$$$$
>  <Given smiles>
O=c1cc(-c2cc(F)ccc2OCCO)n(CCO)c(=S)[nH]1

>  <MPO kinact/Ki>
15000 1/s per M

$$$$
>  <Given smiles>
COc1ccc(F)cc1-c1cc(=O)[nH]c(=S)n1CC(=O)NCCN

>  <MPO kinact/Ki>
4570 1/s per M

$$$$
>  <Given smiles>
COc1ccc(-c2cc(=O)[nH]c(=S)n2CC(=O)NCC(C)(C)N)c(OC)c1

>  <MPO kinact/Ki>
6620 1/s per M

$$$$

Alright, here's another compound for you.
## Task Any idea what its MPO kinact/Ki is? The compound is "COc1ccc(OCCO)c(-c2cc(=O)[nH]c(=S)n2CCO)c1"
## Result 7370 1/s per M

* * *

Recorded MPO kinact/Ki, one value per entry.
- Study target: MPO (purified from human polynuclear leukocytes) (Homo sapiens, UniProt P05164)
- Construct: purified from human polynuclear leukocytes; purchased Calbiochem/EMD Biosciences; host or cells: human polynuclear leukocytes (natural source)
- Assay explanation: MPO Amplex Red Activity Assay
- Assay type: biochemical
- Recorded conditions: Table 1, 2 μM H2O2, pH 7.4
Where a name gives a salt, the structure may show the parent alone.

Reference set (5 entries):
>  <Compound>
COCCn1c(-c2ccc(Cl)cc2)cc(=O)[nH]c1=S

>  <MPO kinact/Ki>
1080 1/s per M

$$$$
>  <Compound>
COc1ccc(Cl)cc1-c1cc(=O)[nH]c(=S)n1C[C@@H]1CCCN1 [Example 123, hydrochloride]

>  <MPO kinact/Ki>
3780 1/s per M

$$$$
>  <Compound>
O=c1cc(-c2cccc3ncsc23)n(CCO)c(=S)[nH]1

>  <MPO kinact/Ki>
6070 1/s per M

$$$$
>  <Compound>
COc1ncc(Cl)cc1-c1cc(=O)[nH]c(=S)n1CCO

>  <MPO kinact/Ki>
7940 1/s per M

$$$$
>  <Compound>
COc1cccc(-c2cc(=O)[nH]c(=S)n2CCCN)c1 [Example 265, hydrochloride]

>  <MPO kinact/Ki>
3730 1/s per M

$$$$

## Task Given "COCCn1c(-c2ccccc2OC(F)(F)F)cc(=O)[nH]c1=S" , state its recorded MPO kinact/Ki.
## Result 5500 1/s per M

## Task Look up MPO kinact/Ki for this compound: "COCCn1c(-c2cccc3sccc23)cc(=O)[nH]c1=S"
## Result 14400 1/s per M

## Task Given the entry "COCCn1c(-c2ccc(OC)cc2OC)cc(=O)[nH]c1=S" , report its measured MPO kinact/Ki.
## Result 8200 1/s per M

## Task Query: MPO kinact/Ki; subject: "COc1cc(-c2cc(=O)[nH]c(=S)n2CC(N)=O)c(OC)cc1Cl"
## Result 5900 1/s per M
